# Test system: Saccharomyces cerevisiae;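 also: PSI is a weighted mean of sequencing reads over stability bins, variants kept only with over 10 reads, mCherry proximal and sfGFP distal, peptide attached via GGGS linker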
# measurement.protocol: protein stability index of tFT-peptide fusion (C-terminal peptide) (PSI (0-1 scale)); higher = more stable (slower turnover)
# assay.setup: genetic background: wild type; temperature: 30 C
Entry class follows protein stability index: L (below 0.6), M (0.6 to below 0.7), H (0.7 or more)

# bin label for `RSAMRLFEPFSP` H

# bin label for `SFIFFVSCFFIF` L

# bin label for `FPHSPPFIPHPP` M

# bin label for `KKTGITTNIKRW` H

# bin label for `RYIKSRMLIIER` L

# bin label for `LPSPSPPPPLLL` M

# bin label for `EMRAGNWWGREG` H

# bin label for `KECGICGAVVGL` M

# bin label for `IICDIFYCSTVS` M

# bin label for `SACPPIPPPPPP` M

# bin label for `LRVKVPLLGLWA` L

# bin label for `VFLCVRLGFIFL` L

# bin label for `RDTFLKMLDERN` H

# bin label for `LLLSPAFFSCFL` M

# bin label for `PWDGFGPYAPYP` M

# bin label for `RFGSGYLRRYTH` H

# bin label for `NKRCRNITIQRA` H

# bin label for `LISLGTYLINGF` M

# bin label for `TNSVGCRIGGKQ` M

# bin label for `PLLLSPPPLYTF` M

# bin label for `TLSLILPQLPPL` M

# bin label for `LGCCVFGFVFPS` M

Origin of the recorded values: the supplement of paper PMC10724198
